system: OsWRKY34 (Oryza sativa, UniProt Q0JBA9 1-250)
Sequence (Q0JBA9 entry or part of it): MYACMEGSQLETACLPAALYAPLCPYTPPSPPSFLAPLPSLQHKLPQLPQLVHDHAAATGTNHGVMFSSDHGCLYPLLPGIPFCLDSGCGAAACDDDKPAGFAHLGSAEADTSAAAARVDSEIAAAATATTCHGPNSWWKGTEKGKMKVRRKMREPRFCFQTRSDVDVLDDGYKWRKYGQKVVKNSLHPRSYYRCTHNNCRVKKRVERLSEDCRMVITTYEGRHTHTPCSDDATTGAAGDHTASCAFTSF
test: protein-binding microarray (RPBM); PBS, 2% BSA, 51.3 ng/ul salmon testes DNA, 50 uM zinc acetate, 200 nM TF, 25 C, 1 h; high values mean tight binding
condition.notes: protein: recombinant; tags: N-terminal polyhistidine and DsRed monomer fusion (pET32a); label: CyDye5-dUTP incorporated in the synthesized complementary strand; 3' TTTTT single-stranded linker to array surface; dsDNA, one strand shown
Whole data set: some 68,000 sequences, median “fluorescence intensity (a.u.)” near 9,100, cut for the highest 2% near 16,000. Many of the other results were omitted from the sample, so the highest values are more common in it than they were.
measurement.name: binding signal

- TGTGGTGTGCTTGAGGTGCTTTTGAGTTTTAAATAGATTACGGAGTCACCTAGTGCAG: 8520 fluorescence intensity (a.u.)
- GCCATTCCACATCAGTCCGTGCCGCTCTCTGCCCATTCTCCGGAGTCACCTAGTGCAG: 18900 fluorescence intensity (a.u.)
- GAACTAGTCCGCCTAATTGTTGGCTCTCTTATCTCTTCATCGGAGTCACCTAGTGCAG: 12100 fluorescence intensity (a.u.)
- CTGCTGCATCTGCACTGCATGGCCATGCCCACACACTTGGCGGAGTCACCTAGTGCAG: 8050 fluorescence intensity (a.u.)
- CCTAGACCCCTTCTCACGCCGCCAGCCCGTCACACCGAGTCGGAGTCACCTAGTGCAG: 8790 fluorescence intensity (a.u.)
